assay system: KRAS G12C::SOS1 (Homo sapiens)
Construct: purchased CISBIO 64KRASG12PEH
protocol text: KRAS G12C::SOS1 protein-protein interaction (PPI) inhibition assay (HTRF)
Format: binding
test settings: read-out: KRAS G12C::SOS1 PPI; 8 concentrations from 3 µM, three replicates
experimental endpoint: IC50

mol	experimental endpoint	reported result
C[C@@H](NC(=O)c1ccc(=O)n(-c2cnc(N3CCOCC3)c(-c3cnnn3C)c2)n1)c1cccc(C(F)(F)F)c1F	IC50	50 to 150 nM
CC(C)n1nncc1-c1cncc(-n2nc(C(=O)N[C@H](C)c3cccc(C(F)(F)F)c3F)ccc2=O)c1	IC50	< 50 nM
C[C@@H](NC(=O)c1ccc(=O)n(-c2cncc(-c3cnnn3C)c2)n1)c1cccc(C2(CO)CC2)c1F	IC50	> 150 nM

----------
assay system: SOS1 (Homo sapiens, UniProt Q07889)
Construct: HIS-SOS1cat (160 nM; Cytoskeleton, US); His (N); purchased Cytoskeleton
Sequence (Q07889 564-1049 limits assumed): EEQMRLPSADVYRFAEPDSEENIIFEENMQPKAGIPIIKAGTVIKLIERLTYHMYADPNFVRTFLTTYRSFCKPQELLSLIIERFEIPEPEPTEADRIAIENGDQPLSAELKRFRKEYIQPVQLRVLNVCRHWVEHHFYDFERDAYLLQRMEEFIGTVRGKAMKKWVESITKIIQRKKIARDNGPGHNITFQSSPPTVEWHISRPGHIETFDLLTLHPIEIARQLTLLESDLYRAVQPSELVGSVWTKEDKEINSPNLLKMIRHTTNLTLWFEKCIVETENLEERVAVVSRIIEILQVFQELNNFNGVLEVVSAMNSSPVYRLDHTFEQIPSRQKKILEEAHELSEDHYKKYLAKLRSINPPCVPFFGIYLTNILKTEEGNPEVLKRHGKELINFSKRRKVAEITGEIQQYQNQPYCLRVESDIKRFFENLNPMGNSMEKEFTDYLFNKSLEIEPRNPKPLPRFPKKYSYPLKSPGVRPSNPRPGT
protocol text: SOS-catalyzed nucleotide exchange assay (HTRF, SOS1-mediated GTP loading of KRAS G12D)
Type: biochemical
test settings: GST-KRAS G12D, HIS-SOS1cat, compound 128 pM to 10 µM; read-out: SOS-catalyzed nucleotide exchange assay
pIC50: −log10 of the molar value.
Each entry below lists one item and its recorded pIC50 value.

mol	pIC50
C[C@@H](NC(=O)c1ccc(=O)n(-c2cncc(-c3cnnn3C)c2)n1)c1cccc(C(F)(F)CO)c1Cl	6.82 to 7.30
C[C@@H](NC(=O)c1ccc(=O)n(-c2cncc(-c3cnnn3C)c2)n1)c1cccc(C(F)(F)F)c1F	6.82 to 7.30
C[C@@H](NC(=O)c1cc(C#N)c(=O)n(-c2cc(-c3cnnn3C3CC3)cnc2F)n1)c1cccc(C(F)(F)F)c1F	6.82 to 7.30
CCn1nncc1-c1cncc(-n2nc(C(=O)N[C@H](C)c3cccc(C(F)(F)F)c3F)cc(C)c2=O)c1	> 7.30
[2H]C([2H])([2H])n1nncc1-c1cncc(-n2nc(C(=O)N[C@H](C)c3cccc(C(F)F)c3F)ccc2=O)c1	6.82 to 7.30
CC(=O)N1CCC(n2nncc2-c2cncc(-n3nc(C(=O)N[C@H](C)c4cccc(C(F)(F)F)c4F)ccc3=O)c2)CC1	> 7.30
CCN1CC(n2nncc2-c2cncc(-n3nc(C(=O)N[C@H](C)c4cccc(C(F)(F)F)c4F)ccc3=O)c2)C1	> 7.30
